System: HL-60
Test: NCI tumour cell line growth inhibition, 48 h
Active and inactive are the calls of the source. Rule as the data show it: active = GI50 up to about 1.1 µM and inactive = higher.
For each of the molecules below, state its GI50.

**Q:** For HL-60, provide GI50 of `N#CCCN(CCN(C(=O)Nc1ccccc1)c1ccccc1)C(=O)Nc1ccccc1` please.
**A:** 13 µM (inactive)

**Q:** And what about the molecule Cc1ccccc1NC(=O)C(=O)C(C(=O)c1ccccc1F)C1OC(=O)c2ccccc21 (stereo not given) ?
**A:** 16.3 µM (inactive)

**Q:** And what about the molecule CCC12C=CCN3CCC4(C(=C(C(=O)OC)[C@@H]1O)Nc1ccccc14)C32 (stereo not given in full) ?
**A:** 2 µM (inactive)

**Q:** And what about the molecule COC(=O)c1cc(C)ccc1CC(Cc1cccc(C)c1)C(=O)OC (stereo not given) ?
**A:** 34.7 µM (inactive)

**Q:** And what about the molecule c1cncc(C2N3CCCCC3[C@@H]3c4[nH]c5ccccc5c4CCN23)c1 (stereo not given in full) ?
**A:** > 100 µM (inactive)

**Q:** And what about the molecule `CCOC(=O)c1cc(-c2ccc(OC)cc2)c([N+](=O)[O-])n1C` ?
**A:** > 10 µM (inactive)

**Q:** And what about the molecule `CCOC(=O)c1nc2ccc(C(F)(F)F)cc2nc1Nc1ccc(Cl)c(Cl)c1` ?
**A:** 95.7 µM (inactive)

**Q:** And what about the molecule C=C1CC(c2ccc(OCCCN3C(=O)c4ccccc4C3=O)c(OC)c2)OC1=O (stereo not given) ?
**A:** 1.25 µM (inactive)

**Q:** And what about the molecule COc1cccc(C(=O)C(O)c2cccc(OC)c2OC)c1OC (stereo not given) ?
**A:** > 100 µM (inactive)

**Q:** And what about the molecule `Cc1ccc(S(=O)(=O)Oc2nc3ccccc3nc2N(S(=O)(=O)c2ccc(C)cc2)S(=O)(=O)c2ccc(C)cc2)cc1` ?
**A:** 33 µM (inactive)

###

System: DU-145
Test: NCI tumour cell line growth inhibition, 48 h
Active and inactive are the calls of the source. Cut-off read from the data, not from the text of the source: active = GI50 up to about 1.1 µM and inactive = higher.
Hi! Could you answer with just one of these? yes (1) for active, no (0) for inactive

**Q:** In this assay, the call recorded for CN1C(=O)C(O)CC1c1ccccc1C(F)(F)F (configuration not stated) was what?
**A:** no (0)

**Q:** And what about the compound O=C(O)CCC1NC(/C(=C/c2ccccc2O)NC(=O)c2ccccc2)OC1=O (configuration not stated) ?
**A:** no (0)

**Q:** And what about the compound `Cc1ccc(-c2n[nH]c(=O)n2N2C(=O)C=CC2=O)cc1` ?
**A:** no (0)

**Q:** And what about the compound `Cc1nc2sccn2c1C(=O)OCCOCCOCCOCCOC(=O)c1c(C)nc2sccn12` ?
**A:** no (0)

**Q:** And what about the compound `O=C([O-])C[n+]1ccccc1.c1ccncc1` ?
**A:** no (0)

**Q:** And what about the compound CCN(CC)C(=S)SC(C(=O)Nc1nnc(-c2ccc(Cl)cc2)o1)c1ccccc1 (configuration not stated) ?
**A:** no (0)

**Q:** And what about the compound `O=C1c2cccc3cccc(c23)C(=O)N1CCCNCCCNCCCCNCCCNCCCN1C(=O)c2cccc3cccc(c23)C1=O` ?
**A:** no (0)

**Q:** And what about the compound `Nc1nc(Cc2ccccc2)nc(Cc2ccccc2)c1-c1ccccc1` ?
**A:** no (0)

**Q:** And what about the compound `CC(C)OC(=O)NNc1cccc(Cl)c1` ?
**A:** no (0)

**Q:** And what about the compound `c1ccc(-c2nc(-c3ccccc3SSc3ccccc3-c3nc(-c4ccccc4)nn3-c3ccccc3)n(-c3ccccc3)n2)cc1` ?
**A:** no (0)

**Q:** And what about the compound N#Cc1c(-c2ccccc2)c(C#N)c(=S)n(C2OC(CO)C(O)C(O)C2O)c1O (configuration not stated) ?
**A:** no (0)

**Q:** And what about the compound `O=C1c2cc3ncsc3cc2C(=O)c2c(O)ccc(O)c21` ?
**A:** no (0)

**Q:** And what about the compound `NC(=O)C1CCN(Cc2c(Cl)c(Cl)c(CN3CCC(C(N)=O)CC3)c(Cl)c2Cl)CC1` ?
**A:** no (0)

**Q:** And what about the compound O=C1c2ccccc2-[n+]2ccc3c([nH]c4ccccc43)c21 [FASCAPLYSIN CHLORIDE] ?
**A:** no (0)

**Q:** And what about the compound `CC(C)C[C@H](NC(=O)[C@H](Cc1cccc2ccccc12)NC(=O)N1CCOCC1)B(O)O` ?
**A:** yes (1)

**Q:** And what about the compound `c1csc(-c2ccc(-c3cccs3)c3nsnc23)c1` ?
**A:** no (0)

**Q:** And what about the compound O=C(Nc1ccccc1)N1N=C(c2ccccc2)C1c1ccccc1 (configuration not stated) ?
**A:** no (0)

**Q:** And what about the compound `CO/N=C(/C(=O)OC)c1ccccc1COc1ccccc1C(F)(F)F` ?
**A:** no (0)

**Q:** And what about the compound `Cc1cc(C)c2c(n1)S(=O)(=O)N(CCCN1CCN(c3cccc(C(F)(F)F)c3)CC1)C(C(=O)c1ccccc1)=C2O` ?
**A:** no (0)

**Q:** And what about the compound `FC(F)(F)c1cc(Cl)cnc1N/N=C(/c1ccccc1)c1ccccn1` ?
**A:** no (0)

**Q:** And what about the compound `CCCCCCCCCC(=O)N[C@@H](c1ccco1)[C@@H](O)C(=O)O[C@H]1C[C@@]2(O)[C@@H](OC(=O)c3ccccc3)[C@@H]3[C@]4(OC(C)=O)CO[C@@H]4C[C@H](O)[C@@]3(C)C(=O)[C@H](OC(C)=O)C(=C1C)C2(C)C` ?
**A:** yes (1)

**Q:** And what about the compound `OCc1ccn2c1[C@@H](O)CC2` ?
**A:** no (0)

**Q:** And what about the compound Cn1c2c3ccccc3nc-2c(O)c2ccccc21 [HYDROXYCRYPTOLEPINE] ?
**A:** no (0)

**Q:** And what about the compound `N=C(N)NCCCS(=O)(=O)Nc1ccc(Nc2c3ccccc3nc3cc([N+](=O)[O-])ccc23)cc1` ?
**A:** no (0)

**Q:** And what about the compound `COc1c(Cl)ccc(Cl)c1C(=O)NNC(=O)c1c(Cl)c(Cl)c(Cl)c(Cl)c1-c1nc2cc(C(=O)c3ccccc3)ccc2[nH]1` ?
**A:** no (0)

**Q:** And what about the compound `CC(=N\N)/C(C)=N/N=C(C)/C(C)=N/N=C(C)/C(C)=N/N=C(C)/C(C)=N/N` ?
**A:** no (0)

**Q:** And what about the compound `Oc1c(-c2ccccc2)sc2ccccc12` ?
**A:** no (0)

**Q:** And what about the compound COc1cccc(C(=O)C(O)c2cccc(OC)c2OC)c1OC (configuration not stated) ?
**A:** no (0)

**Q:** And what about the compound `CCCO[C@@H]1[C@@H](OC(C)=O)[C@@H](OC(C)=O)C(C)(C)/C=C/[C@H](C)C(=O)[C@@]2(OC(C)=O)C[C@@](C)(OC(C)=O)[C@H](OC(C)=O)[C@@H]2[C@H]2OC(=O)CC[C@@]12OC(=O)c1ccccc1` ?
**A:** no (0)

**Q:** And what about the compound `N#C/C(=C1C=C(Br)/C(=N\O)C=C\1Cl)c1cccc2ccccc12` ?
**A:** no (0)

**Q:** And what about the compound O=c1[nH]c2c(c(=O)[nH]1)SC(c1ccccc1)C2 (configuration not stated) ?
**A:** no (0)

**Q:** And what about the compound `Nc1c(S(=O)(=O)O)cc(Nc2cccc(S(=O)(=O)/C=C/S(=O)(=O)O)c2)c2c1C(=O)c1ccccc1C2=O` ?
**A:** no (0)

**Q:** And what about the compound CC(=O)NC1C(OCc2ccccc2)OC(CO)C(O)C1OC(C)C(=O)NC(C(=O)NC(CCC(=O)NCCCNc1ccc([N+](=O)[O-])c2[nH]c3ccccc3c(=O)c12)C(N)=O)C(C)C (configuration not stated) ?
**A:** no (0)

**Q:** And what about the compound `CN(C)c1ccc(/C=C/C=c2/c3ccccc3n3c2cc(-c2ccccc2)[n+]3C)cc1` ?
**A:** yes (1)

**Q:** And what about the compound `c1ccc2c(c1)CCN(C1=NCCO1)C2` ?
**A:** no (0)

**Q:** And what about the compound `S=c1sc2ccccc2n1CN1CCN(Cc2ccccc2)CC1` ?
**A:** no (0)

**Q:** And what about the compound `O=C1c2cccc3cccc(c23)C(=O)N1CCCNOCCONCCCN1C(=O)c2cccc3cccc(c23)C1=O` ?
**A:** no (0)
